- assay.method.text: Biodistribution in BxPC3-luc tumor-bearing mice
- Assay type: in vivo, BALB/c nu/nu mice
- experimental.parameters: female, BALB/c nu/nu, large intestine, iv, total radioactivity; 1 h, blocking: co-injection of IPLPPPRRPFFK 1 mg/mouse; read-out: Biodistribution, Large intestine
Where a SMILES comes first, the peptide text is derived from it. The star is where a group is joined. DOTA = O=C(O)CN1CCN(CC(=O)O)CCN(CC(=O)*)CCN(CC(=O)O)CC1; AEEA = NCCOCCOCC(=O)O

molecule: CC[C@H](C)[C@H](NC(=O)COCCOCCNC(=O)CN1CCN(CC(=O)O)CCN(CC(=O)O)CCN(CC(=O)O)CC1)C(=O)N1CCC[C@H]1C(=O)N[C@@H](CC(C)C)C(=O)N1CCC[C@H]1C(=O)N1CCC[C@H]1C(=O)N1CCC[C@H]1C(=O)N[C@@H](CCCNC(=N)N)C(=O)N[C@@H](CCCNC(=N)N)C(=O)N1CCC[C@H]1C(=O)N[C@@H](Cc1ccccc1)C(=O)N[C@@H](Cc1ccccc1)C(=O)N[C@@H](CCCCN)C(=O)O [[^67Ga]27, [^67Ga]Ga-DOTA-EG2-IPLPPPRRPFFK, metal not drawn] ({DOTA-AEEA}-IPLPPPRRPFFK-OH)
tissue uptake at 1 h (%ID/g): 0.25
